System: SMN2 minigene (full length SMN2 minigene mRNA containing SMN2 exon 7)
Test: SMN2 minigene mRNA splicing RT-qPCR assay in cultured cells
Type: cell-based, human
Details: HEK293H cells stably transfected with SMN2-A minigene; 24 hours; 7-point concentration curve; 1.5-fold relative to vehicle-treated cells
Method: The reverse transcription-quantitative PCR-based (RT-qPCR) assay is used to quantify the level of the full length SMN2 minigene mRNA containing SMN2 exon 7 in a HEK293H cell line stably transfected with said minigene and treated with a test compound. Protocol. […] The amplification efficiency E is calculated from the slope of the amplification curve for SMN2mini FL and GAPDH individually. […]
quantity.kind: EC1.5x for production of full length SMN2 mRNA

Cc1cn2cc(-c3cc4ccc(N5C[C@H]6CCCN[C@H]6C5)cc4oc3=O)nc2c(C)n1 [Compound 781] = ***** (EC1.5x≤0.1 μM)
Cc1cn2cc(-c3cc4ccc(N5C[C@H]6CCCN(C)[C@H]6C5)cc4oc3=O)nc2c(C)n1 [Compound 782] = ***** (EC1.5x≤0.1 μM)

Values were extracted from patent USRE47689E1.
